testTarget: UniProt:O60341
recordedMetric: IC50

Worked set:
c1ccc(C2C[C@@H]2NCC2(c3noc(-c4ccc5scnc5c4)n3)CCC2)cc1 (some centres unmarked) [Example 127]; ≤ 50 nM
Fc1ccc(-c2nc(C3(CN[C@H]4CC4c4ccccc4)CCC3)no2)c(F)c1 (some centres unmarked) [Example 187]; ≤ 50 nM
CS(=O)(=O)n1cc2c(n1)CN(CC1(CN[C@H]3C[C@@H]3c3ccccc3)CC1)C2 [Example 106]; 100 to 500 nM
O=C(C1CC1)N1CCC(c2nc(C3(CN[C@H]4CC4c4ccccc4)CC3)no2)CC1 (some centres unmarked) [Example 208]; ≤ 50 nM
CC1CCN(CC2(CN[C@H]3C[C@@H]3c3ccccc3)CC2)C1 (some centres unmarked) [Example 98]; 50 to 100 nM
N[C@@H](CCc1nc(C2(CN[C@@H]3C[C@H]3c3ccccc3)CC2)no1)C(=O)O [Example 153]; 100 to 500 nM
Cc1sc(C2(CN[C@H]3CC3c3ccccc3)CCC2)nc1C(=O)O (some centres unmarked) [Example 194]; 100 to 500 nM
Cc1oc(C2(CN[C@H]3C[C@@H]3c3ccccc3)CCC2)nc1C(=O)O [Example 186]; 100 to 500 nM

Each compound below has a reported value. Please supply its IC50.
1. NC1CCC(c2nc(C3(CN[C@@H]4C[C@H]4c4ccccc4)CC3)no2)CC1(F)F (some centres unmarked) [Example 244]
2. c1ccc(C2C[C@@H]2NCC2(c3cccnc3)CCC2)cc1 (some centres unmarked) [Example 119]

// result
≤ 50 nM
≤ 50 nM

// query Please provide the recorded IC50 for c1ccc(C2C[C@@H]2NCC2(c3noc4ccccc34)CCC2)cc1 (some centres unmarked) [Example 72] , tested on UniProt:O60341.
// result ≤ 50 nM

====

Provide the reported bioavailability of each item.
measurementNotes: Pharmacokinetic evaluation in C57BL/6 mice after intravenous and oral administration
Type: in vivo
testConditions: male, mouse, plasma, PO 2 mg/kg vs IV 1 mg/kg, read-out: bioavailability F (%)
Field note: include the unit after the figure.

Worked set:
O=C(O)[C@@H]1CCCN1CC1(CN[C@H]2CC2c2ccccc2)CC1 (stereo partly shown); 40.5%
N#Cc1ccc(-c2nc(C3(CN[C@H]4CC4c4ccccc4)CC3)no2)cc1 (stereo partly shown); 44%
Clc1ccc(-c2nc(C3(CN[C@H]4CC4c4ccccc4)CC3)no2)cc1 (stereo partly shown); 49%

Kindly consider the entry below.
// query Name the reported bioavailability value associated with the compound `O=C(O)C1(CN2CCC(c3nc(C4(CN[C@@H]5C[C@H]5c5ccccc5)CC4)no3)CC2)CCC1`
// result 28%

====

pIC50: −log10 of the molar value.
Data export: pIC50 values recorded with human LSD1 (Homo sapiens (Human), UniProt O60341).

Worked set:
FC(F)(F)c1ccc(CNCC2(CN[C@H]3C[C@@H]3c3ccccc3)CC2)cn1; 7.00 to 7.30
O=C(O)C12CCC(c3nc(C4(CN[C@H]5C[C@@H]5c5ccccc5)CC4)no3)(CC1)CC2; 6.30 to 7.00
N[C@H]1CC[C@H](c2nnc(C3(CN[C@@H]4C[C@H]4c4ccccc4)CC3)o2)CC1; 6.30 to 7.00
c1ccc(C2C[C@@H]2NCC2(c3noc(C4CCc5nc[nH]c5C4)n3)CC2)cc1 (stereo partly drawn); ≥ 7.30
CCNCC1(CN[C@H]2CC2c2ccccc2)CC1 (stereo partly drawn); 6.30 to 7.00
N#Cc1ccc(-c2nc(C3(CN[C@H]4CC4c4ccccc4)CCC3)no2)cc1 (stereo partly drawn); ≥ 7.30
N[C@H]1CC[C@@H](c2nc(C3(CN[C@@H]4C[C@H]4c4ccccc4)CCC3)no2)CC1; ≥ 7.30
NC12CCC(c3nc(C4(CN[C@@H]5C[C@H]5c5ccccc5)CC4)no3)(CC1)CC2; ≥ 7.30

Kindly consider the entry below.
// query Name the reported pIC50 value associated with the compound `O=C(O)c1ccc(CN2CCC(c3nc(C4(CN[C@@H]5C[C@H]5c5ccccc5)CC4)no3)CC2)cc1`
// result 7.00 to 7.30

This collection of values is drawn from patent US11433053B2.
